// data source = patent US7655677B2

- Test system: Reticulitermes speratus
- Experimental protocol: Test Example 9: treated filter paper in acrylic cup, termite mortality 5 and 20 days later
- Assay type: in vivo
- Test settings: 1000 ppm, 20 Days later
Measurement name: Mortality
Please answer using the number first and the unit second.

Reference set, count: 4
> print(dat)
                               entry.smiles  result
1  CC(=NN=C(Cc1ccc(C(F)(F)F)cc1)c1ccc(Cl)cc1)N(C)C    100%
2  CC(N)=NN=C(Cc1ccc(C(F)(F)F)cc1)c1ccc(Cl)cc1    100%
3  CCOC(=O)NN=C(Cc1ccc(C(F)(F)F)cc1)c1ccc(Cl)cc1    100%
4  CC(=NN=C(Cc1ccc(C(C)(C)C)cc1)c1ccc(C)cc1)N(C)C    100%

The record that follows has no Mortality shown yet.
[in] Which Mortality is listed for `CC(=NN=C(Cc1ccc(C(F)(F)F)cc1)c1ccc(F)cc1)N(C)C` ?
[out] 100%

###

- System: Reticulitermes speratus
- Experimental protocol: Test Example 9: treated filter paper in acrylic cup, termite mortality 5 and 20 days later
- Format: in vivo
- Test settings: 1000 ppm, 5 Days later
Exercise: for every item that follows, state its recorded Mortality.
Numbers only, in %.

Reference set, count: 4
> print(dat)
                               entry.smiles  measured.number
1  CC(=NN=C(Cc1ccc(C(C)(C)C)cc1)c1ccc(C)cc1)N(C)C               70
2  CC(N)=NN=C(Cc1ccc(C(F)(F)F)cc1)c1ccc(Cl)cc1              100
3  CC(=NN=C(Cc1ccc(C(F)(F)F)cc1)c1ccc(F)cc1)N(C)C              100
4  CCOC(=O)NN=C(Cc1ccc(C(F)(F)F)cc1)c1ccc(Cl)cc1                0

The record that follows has no Mortality shown yet.
[in] Which Mortality is listed for `CC(=NN=C(Cc1ccc(C(F)(F)F)cc1)c1ccc(Cl)cc1)N(C)C` ?
[out] 0
